All figures here come from the supplement of paper PMC9844399.

Tested on: HeLa
procedureDetails: MALAT1 nuclear FISH intensity, robust Z-score vs DMSO; higher = more nuclear MALAT1 lncRNA, active = -3 or less
measurementContext: 10 µM; 6 h
Structures can show the parent of a compound that is named as a salt.
Possible outcomes: active, inactive

>>> answerlabel("COc1cc2c(c3oc(=O)c4c(c13)CCOC4=O)[C@@H]1C=CO[C@@H]1O2")
"inactive"
>>> answerlabel("CN(C)C(=O)Oc1ccc[n+](C)c1 [Pyridostigmine Bromide]")
"inactive"
>>> answerlabel("CC(C)(c1ccc(OCC2CO2)cc1)c1ccc(OCC2CO2)cc1 (configuration not stated)")
"inactive"
>>> answerlabel("CO[C@H](C/C=C\\C=C\\CC/C=C/C[C@H](C)/C=C/C(=C\\C(=O)O)CC(=O)O)/C(C)=C\\C=C(/C)C(=O)O")
"inactive"
>>> answerlabel("CCCCC/C=C\\C/C=C\\C/C=C\\C=C\\[C@H](CCCC(=O)O)OO")
"inactive"
>>> answerlabel("O=[N+]([O-])O[C@H]1CO[C@H]2[C@@H]1OC[C@H]2O[N+](=O)[O-] [Isosorbide Dinitrate]")
"inactive"
>>> answerlabel("CC(C)[C@@]1(NC(=O)[C@@H]2C[C@@H]3c4cccc5[nH]cc(c45)C[C@H]3N(C)C2)O[C@@]2(O)[C@@H]3CCCN3C(=O)[C@H](Cc3ccccc3)N2C1=O [Dihydroergocristine mesylate]")
"active"
>>> answerlabel("CC1=C[C@H]2O[C@@H]3[C@H](O)C[C@](C)([C@@]2(CO)[C@H](O)C1=O)[C@]31CO1")
"inactive"
>>> answerlabel("CC(C)c1cccc(C(C)C)c1O")
"inactive"
>>> answerlabel("C=C1C[C@@H]2[C@H](CC[C@]3(C)C(=O)CC[C@@H]23)[C@@]2(C)C=CC(=O)C=C12")
"inactive"
>>> answerlabel("CN1[C@@H]2CC[C@H]1C[C@@H](OC(=O)C(CO)c1ccccc1)C2 (some centres not stated) [Atropine Sulfate Monohydrate]")
"inactive"
>>> answerlabel("CO/C1=C\\C(C)=C\\[C@H](C)[C@H](O)[C@H](C)C/C(C)=C\\C=C[C@@H](OC)[C@H]([C@H](C)[C@H](O)[C@@H](C)[C@]2(O)C[C@H](O)[C@@H](C)[C@H](C(C)C)O2)OC1=O")
"inactive"
>>> answerlabel("C[C@@H]1C[C@@H]([C@H](O)CC2CC(=O)NC(=O)C2)C(=O)[C@@H](C)C1 [Cycloheximide]")
"inactive"
>>> answerlabel("N[C@@H]1C[C@H]1c1ccccc1.N[C@H]1C[C@@H]1c1ccccc1 [Tranylcypromine Hemisulfate]")
"inactive"
>>> answerlabel("N[C@@H](Cc1ccc(N(CCCl)CCCl)cc1)C(=O)O")
"inactive"
>>> answerlabel("CCCCC[C@@H](/C=C/C=C\\CCCCCCCC(=O)O)OO")
"inactive"
>>> answerlabel("NCC1(CC(=O)O)CCCCC1")
"inactive"
>>> answerlabel("N#CC(C#N)=Cc1cc(O)c(O)c([N+](=O)[O-])c1 [Tyrphostin AG1288]")
"inactive"
>>> answerlabel("CCCCC/C=C\\CC1OC1CCCCCCCC(=O)O (configuration not stated)")
"inactive"
>>> answerlabel("CCCC[C@H]1C(=O)O[C@H](C)[C@H](NC(=O)c2cccc(NC=O)c2OC)C(=O)O[C@@H](C)[C@@H]1OC(=O)CC(C)C [2-methoxyantimycin A3]")
"inactive"
>>> answerlabel("CCCCCc1cc(O)c2c(c1)OC(C)(C)C1CCC(C(=O)O)=CC21 (configuration not stated) [Tetrahydrocannabinol-7-oic acid]")
"inactive"
>>> answerlabel("CCCCNC(=O)n1c(NC(=O)OC)nc2ccccc21")
"inactive"
>>> answerlabel("COc1ccc(C(CN(C)C)C2(O)CCCCC2)cc1 (configuration not stated)")
"inactive"
>>> answerlabel("C[C@H](CCC(=O)O)C[C@H](C)C[C@H](C)C(=O)/C=C(\\O)[C@H](C)C[C@H](C)C/C=C/[C@@H](C)[C@@H](O)[C@@H](C)[C@@H](O)C[C@@H]1CC[C@@](C)([C@H]2CC[C@@](C)([C@@H](C)O)O2)O1 [Ionomycin, Free Acid, Streptomyces conglobatus]")
"inactive"
>>> answerlabel("O=C(O)CCCc1ccc(N(CCCl)CCCl)cc1")
"inactive"
>>> answerlabel("NCCCNCCSP(=O)(O)O")
"inactive"
>>> answerlabel("CCCCC[C@@H](/C=C/C=C\\C/C=C\\C/C=C\\CCCC(=O)O)OO")
"inactive"
>>> answerlabel("COC[C@H]1OC(=O)c2coc3c2[C@@]1(C)C1=C(C3=O)[C@@H]2CCC(=O)[C@@]2(C)C[C@H]1OC(C)=O")
"inactive"
>>> answerlabel("C[C@]1(O)CC[C@H]2[C@@H]3CCC4=CC(=O)CC[C@]4(C)[C@@]3(F)[C@@H](O)C[C@@]21C")
"inactive"
>>> answerlabel("CC1(C)C(C=C(Cl)Cl)C1C(=O)OCc1cccc(Oc2ccccc2)c1 (configuration not stated)")
"inactive"
>>> answerlabel("CC(=O)C1=C(O)[C@@H]2[C@H]3c4c[nH]c5cccc(c45)C[C@H]3C(C)(C)N2C1=O")
"inactive"
>>> answerlabel("CN1C(=O)C(O)N=C(c2ccccc2)c2cc(Cl)ccc21 (configuration not stated)")
"inactive"

* * *

Test system: HeLa
procedureDetails: MALAT1 nuclear FISH intensity, robust Z-score vs DMSO; higher = more nuclear MALAT1 lncRNA, active = -3 or less
measurementContext: 10 µM; 6 h
readoutLabel: MALAT1 nuclear FISH intensity

>>> readoutvalue("COc1cc([C@@H]2c3cc4c(cc3[C@H](O)[C@H]3COC(=O)[C@H]23)OCO4)cc(OC)c1OC")
"-0.322 (inactive)"
>>> readoutvalue("Oc1ccccc1-c1ccccc1")
"-0.151 (inactive)"
>>> readoutvalue("CC[C@@H](C(N)=O)N1CCCC1=O")
"-0.63 (inactive)"
>>> readoutvalue("CN1[C@@H]2C[C@@H](OC(=O)[C@H](CO)c3ccccc3)C[C@H]1[C@@H]1O[C@@H]12")
"-0.891 (inactive)"
>>> readoutvalue("COC1=CC(=O)O[C@@H](/C=C/c2ccccc2)C1")
"-1.01 (inactive)"
>>> readoutvalue("CCCCCCCCCCCCCCCC(=O)OCC(COP(=O)([O-])OCC[N+](C)(C)C)OC(C)=O (stereo not drawn)")
"-0.455 (inactive)"
>>> readoutvalue("COC[C@@H](NC(C)=O)C(=O)NCc1ccccc1 [Lacosamide]")
"0.22 (inactive)"
>>> readoutvalue("CC(=O)N[C@H]1[C@@H](O[C@@H]2O[C@H](CC(O)[C@H]3O[C@@H](n4ccc(=O)[nH]c4=O)[C@H](O)[C@@H]3O)[C@H](O)[C@H](O)[C@H]2NC(=O)/C=C/CC(C)C)O[C@H](CO)[C@@H](N)[C@@H]1O (stereo partly drawn)")
"0.708 (inactive)"

* * *

Test system: HeLa;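 further: High-content confocal imaging of branched-DNA amplified FISH in 384-well plates, Hoechst-defined nuclei, score is well value minus plate DMSO median over DMSO robust SD, four wells per compound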
procedureDetails: MALAT1 nuclear FISH intensity, robust Z-score vs DMSO; higher = more nuclear MALAT1 lncRNA, active = -3 or less
measurementContext: 10 µM; 6 h
Counter-ions that a name gives are not always drawn.
Classify as follows. Reported MALAT1 nuclear FISH intensity greater than or equal to -0.4: True. Reported MALAT1 nuclear FISH intensity below: False.

>>> answerlabel("COC(=O)[C@@]1(O)C[C@H]2O[C@]1(C)n1c3ccccc3c3c4c(c5c6ccccc6n2c5c31)C(=O)NC4")
"True"
>>> answerlabel("Nc1ccncc1 [4-Aminopyridine]")
"True"
>>> answerlabel("CC(NC(C)(C)C)C(=O)c1cccc(Cl)c1 (stereo unspecified) [Bupropion]")
"True"
>>> answerlabel("c1ccc2c(c1)[I+]c1ccccc1-2 [Diphenyleneiodonium chloride]")
"False"
>>> answerlabel("C[C@@H]1O[C@@H](O[C@H]2C[C@@H](O)[C@]3(CO)[C@H]4[C@H](O)C[C@]5(C)[C@@H](C6=CC(=O)OC6)CC[C@]5(O)[C@@H]4CC[C@]3(O)C2)[C@H](O)[C@H](O)[C@H]1O [Ouabain]")
"True"
>>> answerlabel("C=C1[C@@H](C)[C@H]2[C@H](Cc3ccccc3)NC(=O)[C@]23OC(=O)/C=C/[C@H](O)CCC[C@@H](C)C/C=C/[C@H]3[C@@H]1O [Cytochalasin B]")
"False"
>>> answerlabel("CC[C@@H](C(=O)[C@@H](C)[C@@H](O)[C@H](C)[C@@H]1O[C@@H]([C@@H](CC)C(=O)O)CC[C@@H]1C)[C@H]1O[C@]2(C=C[C@@H](O)[C@]3(CC[C@@](C)([C@H]4CC[C@](O)(CC)[C@H](C)O4)O3)O2)[C@H](C)C[C@@H]1C [Salinomycin]")
"False"
>>> answerlabel("CN1C[C@H](C(=O)N[C@]2(C)O[C@@]3(O)[C@@H]4CCCN4C(=O)[C@H](Cc4ccccc4)N3C2=O)C[C@@H]2c3cccc4[nH]cc(c34)C[C@H]21 [Dihydroergotamine Mesylate]")
"True"
>>> answerlabel("CCCCCCCCCCCCCCCCOC[C@@H](O)COP(=O)([O-])OCC[N+](C)(C)C")
"True"
>>> answerlabel("CNc1ccc2oc(CC3OC4(CCC3C)OC(C(C)C(=O)c3ccc[nH]3)C(C)CC4C)nc2c1C(=O)O (stereo unspecified)")
"True"
>>> answerlabel("C[C@@H](CN1CCC(n2c(=O)[nH]c3cc(Br)ccc32)CC1)NC(=O)[C@@H]1C[C@H]1c1ccccc1")
"True"
>>> answerlabel("C/C(O)=C(\\C#N)C(=O)Nc1cc(Br)ccc1Br")
"False"
>>> answerlabel("C#CCN(C)C(C)Cc1ccccc1 (stereo unspecified) [Deprenyl]")
"True"
>>> answerlabel("CC1=C2C[C@H]3[C@@H](CC=C4C[C@@H](O)CC[C@@]43C)[C@@H]2CC[C@]12O[C@@H]1C[C@H](C)CN[C@H]1[C@H]2C [Cyclopamine]")
"False"
>>> answerlabel("N#CC(C#N)=Cc1ccc([N+](=O)[O-])c(O)c1 [Tyrphostin AG-126]")
"False"
